# Tested on: HeLa
# experimental.protocol: Cytotoxicity against IL1beta and TNFalpha-stimulated human HeLa cells at 1 to 10 uM after 24 hrs by WST1 assay
# Type: cell-based

{"cpd.smiles": "CCCc1nc2ccc(NC(=O)c3ccccc3Cl)cc2c(=O)n1Cc1cccc(Cl)c1", "Activity": "Non-toxic"}
{"cpd.smiles": "CCCc1nc2ccc(NC(=O)c3ccccc3Cl)cc2c(=O)n1Cc1ccccc1Cl", "Activity": "Non-toxic"}
{"cpd.smiles": "CCCc1nc2ccc(NC(=O)c3ccccc3Cl)cc2c(=O)n1Cc1ccc(-c2cccc(OC)c2)cc1", "Activity": "Non-toxic"}

* * *

# tested.target: Prostaglandin G/H synthase 2 (Homo sapiens) (UniProt P35354)
# Sequence (P35354 whole entry): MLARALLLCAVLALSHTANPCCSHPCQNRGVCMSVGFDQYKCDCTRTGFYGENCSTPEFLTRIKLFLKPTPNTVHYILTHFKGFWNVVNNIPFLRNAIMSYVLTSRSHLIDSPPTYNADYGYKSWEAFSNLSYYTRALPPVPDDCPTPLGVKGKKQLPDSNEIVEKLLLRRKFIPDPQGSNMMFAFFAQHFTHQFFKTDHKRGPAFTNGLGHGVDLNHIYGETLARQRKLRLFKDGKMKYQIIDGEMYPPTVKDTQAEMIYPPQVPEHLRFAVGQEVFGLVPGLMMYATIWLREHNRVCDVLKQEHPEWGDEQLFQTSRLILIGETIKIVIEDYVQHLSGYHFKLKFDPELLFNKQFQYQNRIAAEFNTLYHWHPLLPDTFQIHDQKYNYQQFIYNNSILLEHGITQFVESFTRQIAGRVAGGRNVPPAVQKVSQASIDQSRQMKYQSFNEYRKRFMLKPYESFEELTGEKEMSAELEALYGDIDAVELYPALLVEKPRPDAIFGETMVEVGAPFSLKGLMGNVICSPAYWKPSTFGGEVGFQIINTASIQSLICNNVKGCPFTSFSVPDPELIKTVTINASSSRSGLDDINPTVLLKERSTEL
# experimental.protocol: Inhibition of COX2 in LPS-stimulated human whole blood assessed as residual PGE2 level at 100 uM preincubated for 15 mins prior to LPS-stimulation measured after 24 hrs by LC-MS/MS analysis relative to control
readout.type: Activity (%)

{"cpd.smiles": "CCCc1nc2ccc(NC(=O)c3c(F)cccc3Cl)cc2c(=O)n1Cc1cccc(Cl)c1", "tested.target": "Prostaglandin G/H synthase 2 (Homo sapiens) (UniProt P35354)", "readout.type": "Activity", "quantitative.readout": 54.7}
{"cpd.smiles": "CCCc1nc2ccc(NC(=O)c3ccccc3Cl)cc2c(=O)n1Cc1ccc(-c2ccc(Cl)cc2)cc1", "tested.target": "Prostaglandin G/H synthase 2 (Homo sapiens) (UniProt P35354)", "readout.type": "Activity", "quantitative.readout": 174}
{"cpd.smiles": "CCCc1nc2ccc(NC(=O)c3ccccc3Cl)cc2c(=O)n1Cc1ccc(-c2ccccc2)cc1", "tested.target": "Prostaglandin G/H synthase 2 (Homo sapiens) (UniProt P35354)", "readout.type": "Activity", "quantitative.readout": 52.1}
{"cpd.smiles": "CCCc1nc2ccc(NC(=O)c3ccccc3Cl)cc2c(=O)n1Cc1ccc(-c2cccc(Cl)c2)cc1", "tested.target": "Prostaglandin G/H synthase 2 (Homo sapiens) (UniProt P35354)", "readout.type": "Activity", "quantitative.readout": 51.2}
{"cpd.smiles": "CCCc1nc2ccc(NC(=O)c3ccccc3Cl)cc2c(=O)n1Cc1ccccc1Cl", "tested.target": "Prostaglandin G/H synthase 2 (Homo sapiens) (UniProt P35354)", "readout.type": "Activity", "quantitative.readout": 34.2}
{"cpd.smiles": "CCCc1nc2ccc(NC(=O)c3ccccc3C)cc2c(=O)n1Cc1cccc(Cl)c1", "tested.target": "Prostaglandin G/H synthase 2 (Homo sapiens) (UniProt P35354)", "readout.type": "Activity", "quantitative.readout": 53}
{"cpd.smiles": "CCCc1nc2ccc(NC(=O)c3ccccc3Cl)cc2c(=O)n1Cc1ccc(-c2cccc(OC)c2)cc1", "tested.target": "Prostaglandin G/H synthase 2 (Homo sapiens) (UniProt P35354)", "readout.type": "Activity", "quantitative.readout": 50}
{"cpd.smiles": "CCCc1nc2ccc(NC(=O)c3ccccc3Cl)cc2c(=O)n1Cc1cccc(Cl)c1", "tested.target": "Prostaglandin G/H synthase 2 (Homo sapiens) (UniProt P35354)", "readout.type": "Activity", "quantitative.readout": 37.4}

Data origin: ChEMBL document CHEMBL2046422
